# System: PANC-04-03 (Pancreatic Carcinoma)
# Assay Text: combination Emax (second highest fraction inhibited in the dose matrix, 72 h); higher = more inhibition; extreme values may be limits of the assay
Param threshold (0.5) applies to combination Emax; output true when value >= threshold, false when value < threshold.

[[record]]
compound = "C[C@@H]1COCCN1c1cc(C2([S@](C)(=N)=O)CC2)nc(-c2ccnc3[nH]ccc23)n1 [AZD6738] + Nc1ccn([C@@H]2O[C@H](CO)[C@@H](O)C2(F)F)c(=O)n1 [Gemcitabine] (first compound max 10 µM, 7x7, partner max 0.3 µM)"
label = "true"

[[record]]
compound = "Cc1cc2ncnn2cc1Nc1ncc2c(n1)n(C1CCOCC1)c(=O)n2C [AZD7648] + O=C(c1cc(Cc2n[nH]c(=O)c3ccccc23)ccc1F)N1CCN(C(=O)C2CC2)CC1 [Olaparib] (first compound max 10 µM, 7x7, partner max 10 µM)"
label = "false"

[[record]]
compound = "CN(CCO)CC[C@H](CSc1ccccc1)Nc1ccc(S(=O)(=O)NC(=O)c2ccc(N3CCC([C@@H](O)c4ccccc4-c4ccc(Cl)cc4)CC3)cc2)cc1S(=O)(=O)C(F)(F)F [AZD4320] + C[C@@H]1COCCN1C2=NC(=NC(=C2)C3(CC3)[S@](=N)(=O)C)C4=C5C=CNC5=NC=C4 [AZD6738] (first compound max 1 µM, 7x7, partner max 10 µM)"
label = "false"

[[record]]
compound = "Cc1c2c(nn1C)CSCc1cc(n(C)n1)CSc1cc(c3ccccc3c1)OCCCc1c(C(=O)O)n(C)c3c-2c(Cl)ccc13 [AZD5991] + CC(=O)O[C@H]1C(=O)[C@@]2(C)[C@H]([C@H](OC(=O)c3ccccc3)[C@]3(O)C[C@H](OC(=O)[C@H](O)[C@@H](NC(=O)c4ccccc4)c4ccccc4)C(C)=C1C3(C)C)[C@]1(OC(C)=O)CO[C@@H]1C[C@@H]2O [Paclitaxel] (first compound max 1 µM, 7x7, partner max 3 µM)"
label = "true"

[[record]]
compound = "Cc1c2c(nn1C)CSCc1cc(n(C)n1)CSc1cc(c3ccccc3c1)OCCCc1c(C(=O)O)n(C)c3c-2c(Cl)ccc13 [AZD5991] + Nc1ccn([C@@H]2O[C@H](CO)[C@@H](O)C2(F)F)c(=O)n1 [Gemcitabine] (first compound max 1 µM, 7x7, partner max 0.3 µM)"
label = "true"

[[record]]
compound = "CC1(C)CCC(CN2CCN(c3ccc(C(=O)NS(=O)(=O)c4ccc(NCC5CCOCC5)c([N+](=O)[O-])c4)c(Oc4cnc5[nH]ccc5c4)c3)CC2)=C(c2ccc(Cl)cc2)C1 [Venetoclax] + COc1cc(Nc2ncc3c(n2)-c2ccc(Cl)cc2C(c2c(F)cccc2OC)=NC3)ccc1C(=O)O [Alisertib] (first compound max 1 µM, 7x7, partner max 10 µM)"
label = "false"

